targetEntity: T1, Biotinylated human TSLP (human, biotinylated)
T1 construct: also called hTSLP; thymic stromal lymphopoietin
T1 sequence (chain, as listed by the source limits assumed): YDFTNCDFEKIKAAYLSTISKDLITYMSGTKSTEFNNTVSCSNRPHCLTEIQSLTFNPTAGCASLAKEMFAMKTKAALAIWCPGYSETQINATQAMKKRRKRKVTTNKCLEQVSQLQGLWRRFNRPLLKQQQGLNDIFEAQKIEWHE
testMethodNotes: SPR, biotinylated hTSLP on streptavidin chip; Example 8, Ac-(SEQ ID NO: 6)
metric: Kd (nM)

>>> reportedresult("CQWLEDCWRGXC (not fully specified; N-term acetyl; CQWLEDCWRG[4F3ClPhe]C as printed; 3 Cys on TATA) [Example 8]")
4

Cited source: patent US20220363718A1
